# Tested on: NCI-H460 lung
# procedureSummary: NCI tumour cell line growth inhibition, 48 h
Provide the reported TGI of each item.

>>> print(df.to_string())
                                   compound  measuredtarget  recordedresult
0  COC1(OC)C2(Cl)C(Cl)=C(Cl)C1(Cl)C1C2C2CC1(C(=O)O)c1ccccc12 (stereo unspecified)   NCI-H460 lung         47.8 µM
1  Cc1nc2c(o1)C(=Nc1ccccc1)c1nc(C)oc1C2=Nc1ccccc1   NCI-H460 lung        > 100 µM
2  Cc1cc(Nc2cc(N3CCN(C)CC3)nc(/C=C/c3ccccc3)n2)n[nH]1   NCI-H460 lung       > 5.52 µM
3  COC1OC2COC(C)(C)OC2C(OC(C)=O)C1NC(=O)N(CCCl)N=O (stereo unspecified)   NCI-H460 lung        > 100 µM
4                 COC(=O)CCNC(=O)OCc1ccccc1   NCI-H460 lung        > 100 µM
5         Cc1cc(=O)n(-c2cc3cccccc-3n2)[nH]1   NCI-H460 lung         16.1 µM
6  CCC1(c2ccc(N3C(=O)c4cc(OC)c(OC)cc4C3=O)cc2)CCC(=O)NC1=O (stereo unspecified)   NCI-H460 lung         > 10 µM
7  CC(C)C(OC(=O)c1ccc(NCC2=CC(=O)C=CC2=O)cc1)C(C)C   NCI-H460 lung         32.6 µM

Please supply TGI for each of the following items, keeping them in order.
1. CC(=O)c1ccc2c(c1)CC1(C2)Cc2cc3c(c(C(=O)O)c2C1)CCC3 (stereo unspecified)
2. OC(CN(CCCl)CCCl)C(O)C(O)C(O)CN(CCCl)CCCl (stereo unspecified)
3. N#CC(C(=O)/C(=N\NC(N)=O)C(C#N)c1ccccc1)c1ccccc1 (stereo unspecified)

Found:
["> 100 µM", "> 100 µM", "> 100 µM"]

Take each entry in turn and give its TGI.
1. C=CC1CN(C(=O)OCC)N(C(=O)OCC)C1CCc1ccccc1 (stereo unspecified)
2. C/C(=N\NC(=O)c1ccccc1O)c1cccc(/C(C)=N/NC(=O)c2ccccc2O)n1.O=S(=O)([O-])[O-].[Fe+2]
3. CCOC(=O)NC(Nc1ccc(F)cc1)(C(=O)OCC)C(F)(F)F (stereo unspecified)
4. CCN(CC)CCN(C)c1ccc(CO)c2c1C(=O)c1ccccc1S2=O (stereo unspecified)
5. CCOP(=O)(OCC)C(C(=O)OC)C(=O)C(=O)Nc1cccc(O)c1 (stereo unspecified)
6. CC(Nc1ccc(Cl)c(Cl)c1)c1ccncc1 (stereo unspecified)
7. CC(=O)NNc1nc(C)c(C(/C=C/c2ccccc2O)=N/N=C(N)N)s1

Found:
["> 100 µM", "> 100 µM", "> 100 µM", "27.8 µM", "> 100 µM", "44 µM", "> 100 µM"]

Hi, could you look up TGI for each item in my list?
1. COc1ccc(COC(=O)NCC(=O)NC(C)C(=O)NC(Cc2ccccc2)C(=O)OCc2ccccc2)cc1 (stereo unspecified)
2. COC(=O)[C@@H]1Cc2c([nH]c3ccccc23)[C@H](c2ccccc2)N1
3. O=C(/C=C\c1cccc2ccccc12)c1ccc(Cl)cc1Cl

Found:
22.7 µM
> 100 µM
51.6 µM

---

# System: HOP-62 NSCLC
# procedureSummary: NCI tumour cell line growth inhibition, 48 h
measurementKind: TGI (µM)
Give bare numbers, in µM.

Answered examples (2):
>>> print(df.to_string())
                                     smiles  resultunits  recordedresult
0  CCc1nc2ccc(N=Nc3c(O)ccc4ccccc34)cc2[nH]1           µM            43.6
1  Cc1cn(Cc2ccc(C34CC5CC(CC(C5)C3)C4)c(O)c2)c(=O)[nH]c1=O           µM            25.6

--- query ---
TGI in this record for Oc1c(Cl)cc(Cl)c2ccc(Cn3cc(-c4ccc(C(F)(F)F)cc4)nn3)nc12 : 35.2

---

# Tested on: CCRF-CEM leukemia
# procedureSummary: NCI tumour cell line growth inhibition, 48 h
Would you mind telling me the reported TGI of each entry?

compound	TGI
Nc1ccccc1C(=O)CCC1C(=O)NC(=S)NC1=O	> 100 µM

Here are 3 compounds. What values of TGI were reported for them?
1. CN(C)c1c(C2OC(CO)C(O)C2O)c(=O)c1=O (centres undefined)
2. COc1cccc(C2c3cc4c(cc3OC(NNS(=O)(=O)c3ccc(C)cc3)C2C)OCO4)c1OC (centres undefined)
3. Cc1cc(C)c(-c2noc(-c3ccc(Cl)cc3)c2C2=NCCCN2)c(C)c1

Found:
1: > 100 µM; 2: 5.31 µM; 3: 73.9 µM

I would be grateful if you could provide TGI for each of the following entries.
1. COc1ccc(OC)c2c1C=CC(Br)=CC2
2. CCOC(=O)C(C#N)C1=CC(=O)C(=O)c2ccc(O)cc21 (centres undefined)
3. O=C1CC(CC(=O)c2ccc(Br)cc2)C(=O)/C1=C(/O)c1ccc(Br)cc1 (centres undefined)
4. COC(=O)[C@@H]1Cc2c([nH]c3ccccc23)[C@H](c2ccccc2)N1

Found:
1: > 1 µM; 2: > 100 µM; 3: > 100 µM; 4: > 100 µM

Would you mind listing TGI for each of the following compounds?
1. CC1NC(=O)C2=C1C(=O)NC(=O)C2 (centres undefined)
2. CCCCc1ccc(Nc2nc(OC)c3ncn(C4CC(O)C(CO)O4)c3n2)cc1 (centres undefined)
3. CCOP(=O)(OCC)C(NC(=O)C(C(F)(F)F)C(F)(F)F)c1ccccc1 (centres undefined)

Found:
1: > 100 µM; 2: 34.9 µM; 3: > 100 µM

Here are 8 compounds. What values of TGI were reported for them?
1. CC(C)=CCC[C@@H](C)C1=C(O)C(Nc2ccccc2Cl)=C(C)C(=O)C1=O
2. c1ccc(CNCCN(CCNCc2ccccn2)Cc2ccc3ccccc3c2)nc1
3. CCC1(c2ccc(N3C(=O)c4cc(OC)c(OC)cc4C3=O)cc2)CCC(=O)NC1=O (centres undefined)
4. O=C(Nc1ccc(Cl)c(Cl)c1)C(=O)C(C(=O)c1ccccc1-c1ccccc1)C1OC(=O)c2ccccc21 (centres undefined)
5. CCNC(=O)Oc1ccc(/C(=C(/C)Cc2ccc(OC)cc2)c2ccc(OCCN(CC)CC)cc2)cc1
6. O=C(/C=C/c1ccccc1)Nc1ccccc1SCCCCl
7. Cc1ccc(C)n2c1nc1ccccc12
8. COc1cc(C2(c3ncc[nH]3)SSSCC2O)ccc1O (centres undefined)

Found:
1. > 21.3 µM
2. 10.3 µM
3. > 10 µM
4. 84.9 µM
5. 7.96 µM
6. > 100 µM
7. > 100 µM
8. > 53.6 µM

// batch mode: one TGI value per listed entry
1. COc1cc(C(=O)c2cnc(-c3cccc4[nH]ccc34)[nH]2)cc(OC)c1OC
2. OC(CN(CCCl)CCCl)C(O)C(O)C(O)CN(CCCl)CCCl (centres undefined)
3. CC(C)CC(N)C(=O)Nc1ccc2ccccc2c1 (centres undefined)

Found:
1: > 100 µM; 2: > 100 µM; 3: > 100 µM

Dear colleague, could you please provide TGI for the compounds listed below?
1. CC[C@@H](C)/C=C(C)/C=C/C(=O)c1c(O)c(-c2ccc(O)cc2)cn(O)c1=O
2. CCCCCC/C=C\CCCCCCCCCC1=C(CN2CCN(C)CC2)C(=O)C=C(OC)C1=O
3. COC(C)(C)/C=C/c1[nH]c2ccccc2c1CC(=O)NCCc1cn(C(c2ccccc2)(c2ccccc2)c2ccccc2)cn1
4. NS(=O)(=O)c1cc(C(=O)O)c(O)c2ccccc12
5. COC(=O)c1cc2c3ccccc3n3c2c(n1)-c1[nH]c2ccccc2c(=O)c1C3
6. CN(/N=C/c1ccnc2ccccc12)c1c([N+](=O)[O-])cc([N+](=O)[O-])cc1[N+](=O)[O-]
7. O=C1O/C(=C/c2ccccc2)C(c2ccccc2)=C1O

Found:
1: 13.1 µM; 2: 1.95 µM; 3: > 100 µM; 4: > 100 µM; 5: > 100 µM; 6: > 100 µM; 7: > 100 µM

For each of the compounds below, note its TGI.
1. CNS(=O)(=O)NNS(=O)(=O)c1ccc(OC)cc1
2. O=C(NNC(=S)NC1CCCCC1)C12CC3CC(CC(C3)C1)C2
3. COc1cc(/C=N/N=C(\N)NO)c(Cl)cc1O

Found:
1: > 100 µM; 2: > 100 µM; 3: > 100 µM

Batch: TGI for all items listed.
1. Cn1cc2ccccc2c1-c1nc(F)nc(Oc2ccc3c(c2)CC[C@@H]2C3CC[C@@]3(C)C2C[C@H](O)[C@@H]3O)n1 (some centres undefined)
2. CC1(C)CCCC(C)(C2CCC3(C)C2C(O)CC2C4(C)CCC(O)C(C)(C)C4CCC23C)O1 (centres undefined)
3. COC(=O)CCNC(=O)OCc1ccccc1

Found:
1: 6.43 µM; 2: > 100 µM; 3: > 100 µM
